Here the recorded IC50 is given for each entry.
biological target: recombinant human PARP (PARP1) (Homo sapiens, UniProt P09874); construct: Full length human PARP (PARP1) is assembled from PCR fragments; His6 tag with TEV site, from the pFastBac-HTb vector (own knowledge of the vector); made in house; host or cells: insect cells, baculovirus (Bac-to-Bac, Gibco-BRL); assay: PARP enzyme assay, Method A (radioactivity or 'ELISA' enzyme assay with partially purified enzyme); format: biochemical; details: recombinant human PARP preparation, radioactive or ELISA enzyme assay
Sequence (P09874 whole entry, the tested form may be a part): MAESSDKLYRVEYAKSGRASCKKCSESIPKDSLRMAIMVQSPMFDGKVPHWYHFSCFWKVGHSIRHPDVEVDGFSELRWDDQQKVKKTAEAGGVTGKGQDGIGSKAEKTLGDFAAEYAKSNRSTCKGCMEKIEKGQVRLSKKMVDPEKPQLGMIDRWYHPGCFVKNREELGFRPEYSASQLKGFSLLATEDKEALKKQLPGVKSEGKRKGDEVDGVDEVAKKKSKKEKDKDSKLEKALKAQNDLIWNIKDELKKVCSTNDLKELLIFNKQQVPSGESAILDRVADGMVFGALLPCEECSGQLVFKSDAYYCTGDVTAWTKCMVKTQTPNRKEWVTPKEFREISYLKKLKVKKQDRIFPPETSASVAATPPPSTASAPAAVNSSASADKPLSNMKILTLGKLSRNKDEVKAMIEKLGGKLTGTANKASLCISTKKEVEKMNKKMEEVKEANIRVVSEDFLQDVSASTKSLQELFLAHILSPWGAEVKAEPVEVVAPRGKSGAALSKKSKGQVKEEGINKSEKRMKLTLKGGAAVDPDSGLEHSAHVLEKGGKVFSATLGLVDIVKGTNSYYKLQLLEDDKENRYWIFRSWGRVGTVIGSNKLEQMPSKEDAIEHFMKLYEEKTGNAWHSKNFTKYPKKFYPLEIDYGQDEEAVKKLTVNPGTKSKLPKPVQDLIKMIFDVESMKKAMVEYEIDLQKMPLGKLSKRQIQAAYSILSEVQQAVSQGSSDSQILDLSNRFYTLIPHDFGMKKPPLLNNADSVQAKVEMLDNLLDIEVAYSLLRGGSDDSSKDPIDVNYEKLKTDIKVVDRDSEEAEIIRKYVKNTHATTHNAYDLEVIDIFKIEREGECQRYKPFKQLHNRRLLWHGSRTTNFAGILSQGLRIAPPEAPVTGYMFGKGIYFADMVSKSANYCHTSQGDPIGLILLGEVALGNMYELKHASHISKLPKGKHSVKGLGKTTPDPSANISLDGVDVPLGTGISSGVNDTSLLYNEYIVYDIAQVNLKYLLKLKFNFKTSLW
Structures can show the parent of a compound that is named as a salt.
measured_endpoint: IC50 (µM)

[[record]]
compound = "CCc1cc(-c2ccc(S(=O)(=O)NCC(O)c3ccccc3)s2)c(C)[nH]c1=O (stereo not drawn)"
result = 0.37

[[record]]
compound = "CCc1cc(-c2ccc(CN3CCCC(CO)C3)s2)c(C)[nH]c1=O (stereo not drawn) [Example 131, hydrochloride]"
result = 0.47

[[record]]
compound = "CCc1cc(-c2ccc(S(=O)(=O)NC3CCN(Cc4ccncc4)CC3)s2)c(C)[nH]c1=O [Example 82, dihydrochloride]"
result = 0.48

[[record]]
compound = "CCc1cc(-c2ccc(CNC3CCC3)s2)c(C)[nH]c1=O [Example 137, hydrochloride]"
result = 0.52

[[record]]
compound = "CCc1cc(-c2ccc(S(=O)(=O)N3CCN(Cc4ccc5c(c4)OCO5)CC3)s2)c(C)[nH]c1=O [Example 104, hydrochloride]"
result = 2.5

[[record]]
compound = "CCc1cc(-c2ccc(CNC3Cc4ccccc4C3)s2)c(C)[nH]c1=O [Example 156, hydrochloride]"
result = 0.44

[[record]]
compound = "CCc1cc(-c2ccc(S(=O)(=O)N3CCN(CCN(C)C)CC3)s2)c(C)[nH]c1=O [Example 64, dihydrochloride]"
result = 1.5

[[record]]
compound = "CCc1cc(-c2ccc(S(=O)(=O)NCCNc3ccccc3)s2)c(C)[nH]c1=O [Example 32, hydrochloride]"
result = 2.9

[[record]]
compound = "CCc1cc(-c2ccc(CNCCc3cccnc3)s2)c(C)[nH]c1=O [Example 163, dihydrochloride]"
result = 1.7

